- Tested on: CCRIS mutagenicity, Ames/micronucleus/aberration tests
- PROTOCOL DETAILS: CCRIS mutagenicity studies
- ASSAY SETUP: Test System: AMES SALMONELLA TYPHIMURIUM; Strain/Indicator: TA1535; Metabolic Activation: HAMSTER, LIVER, S-9, AROCLOR 1254 (10%); Method: PREINCUBATION
Active and inactive are the calls of the source. The rule behind the calls is not given here.
Entry note: the call must match one of yes (1) = active, no (0) = inactive

Worked examples follow.
MOLECULE: ClC(Cl)(Cl)C1CO1 (centres undefined)
CLASS NAME: no (0)
--
MOLECULE: CCCCCCOCC1CO1 (centres undefined)
CLASS NAME: yes (1)
--
MOLECULE: OC(CCl)CCl
CLASS NAME: yes (1)

# input for lookup
Req: Which outcome did this test record for the molecule "c1ccc2c(c1)Nc1ccccc1S2" ?
Resp: no (0)

###

- System: CCRIS mutagenicity, Ames/micronucleus/aberration tests
- PROTOCOL DETAILS: CCRIS mutagenicity studies
- ASSAY SETUP: Test System: AMES SALMONELLA TYPHIMURIUM; Strain/Indicator: TA98; Metabolic Activation: NONE
- Text: The CCRIS database contains chemical records with carcinogenicity, mutagenicity, tumor promotion, and tumor inhibition test results. It was developed by the National Cancer Institute (NCI). Data are derived from studies cited in primary journals, current awareness tools, NCI reports, and other sources. Test results have been reviewed by experts in carcinogenesis and mutagenesis. CCRIS provides historical information from the years 1985 - 2011. It is no longer updated. […]
Calls of active or inactive are those of the source. How the calls were made is not given here.
Entry note: the call must match one of 1 (yes) = active, 0 (no) = inactive

Worked examples follow.
MOLECULE: CCCC(=O)Nc1ccc(OCC(O)CNC(C)C)c(C(C)=O)c1 (stereo not given)
CLASS NAME: 0 (no)
--
MOLECULE: Nc1ccc2ccc3c4ccccc4cc4ccc1c2c43
CLASS NAME: 1 (yes)
--
MOLECULE: C/C=C(\Cl)C1=C(Cl)C(=O)[C@]23C[C@H]2C(C)(C)O[C@]3(O)C1=O
CLASS NAME: 0 (no)

Req: Which outcome did this test record for the molecule "C#CCO" ?
Resp: 0 (no)

Req: And then "C/C=C/C1=CC(=O)[C@]23C[C@H]2C(C)(C)O[C@]3(O)C1=O" , what is it?
Resp: 0 (no)

###

- Test system: CCRIS mutagenicity, Ames/micronucleus/aberration tests
- PROTOCOL DETAILS: CCRIS mutagenicity studies
- ASSAY SETUP: Test System: AMES SALMONELLA TYPHIMURIUM; Strain/Indicator: TA100; Metabolic Activation: RAT, LIVER, S-9, KANECHLOR 500; Method: PREINCUBATION
- Source text: The CCRIS database contains chemical records with carcinogenicity, mutagenicity, tumor promotion, and tumor inhibition test results. It was developed by the National Cancer Institute (NCI). Data are derived from studies cited in primary journals, current awareness tools, NCI reports, and other sources. Test results have been reviewed by experts in carcinogenesis and mutagenesis. CCRIS provides historical information from the years 1985 - 2011. It is no longer updated. […]
The source made the active and inactive calls. The rule behind the calls is not given here.
Entry note: the call must match one of active, inactive

Req: Which outcome did this test record for the compound "Nc1ccc([N+](=O)[O-])cc1Cl" ?
Resp: inactive

Req: And then "Cc1cc(C)cc([N+](=O)[O-])c1" , what is it?
Resp: inactive

Req: And then "O=[N+]([O-])c1cccc(S(=O)(=O)O)c1" , what is it?
Resp: inactive

Req: And then "CCCC[N+](=O)[O-]" , what is it?
Resp: inactive

###

- Test system: CCRIS mutagenicity, Ames/micronucleus/aberration tests
- PROTOCOL DETAILS: CCRIS mutagenicity studies
- ASSAY SETUP: Test System: AMES SALMONELLA TYPHIMURIUM; Strain/Indicator: TA100; Metabolic Activation: NONE
Active and inactive are the calls of the source. How the calls were made is not given here.
Entry note: the call must match one of True = active, False = inactive

COMPOUND: N[C@@H](CCC(=O)NNc1ccc(CO)cc1)C(=O)O
CLASS NAME: False
--
COMPOUND: Oc1cc(Cl)c(O)cc1Cl
CLASS NAME: False
--
COMPOUND: NC(=O)OC[C@@H]1[C@H](NC(=O)/C(=N\OCC(=O)O)c2csc(N)n2)C(=O)N1S(=O)(=O)O
CLASS NAME: False
--
COMPOUND: O=[N+]([O-])c1ccc2c3c(cccc13)-c1ccccc1-2
CLASS NAME: True
--
COMPOUND: CCCC(=O)Nc1ccc(OCC(O)CNC(C)C)c(C(C)=O)c1 (stereo not drawn)
CLASS NAME: False

Req: Which outcome did this test record for the compound CC(C)=CC1C(C(=O)OCN2C(=O)C3=C(CCCC3)C2=O)C1(C)C (stereo not drawn) ?
Resp: False

Req: And then "C/C=C/C1=CC(=O)[C@]23C[C@H]2C(C)(C)O[C@]3(O)C1=O" , what is it?
Resp: True

Req: And then "CC(=O)N[C@@H]1[C@@H](O[C@@H]2O[C@H](C(=O)O)[C@@H](O[C@@H]3O[C@H](CO)[C@@H](O)[C@H](O[C@@H]4O[C@H](C(=O)O)[C@@H](O)[C@H](O)[C@H]4O)[C@H]3NC(C)=O)[C@H](O)[C@H]2O)[C@H](O)[C@@H](CO)O[C@H]1O" , what is it?
Resp: False

Req: And then "C[As+](C)(C)CC(=O)[O-]" , what is it?
Resp: False

Req: And then "C/C=C\C1=CC(=O)[C@]23C[C@H]2C(C)(C)O[C@]3(O)C1=O" , what is it?
Resp: True

Req: And then "CC(=O)OO[N+](=O)[O-]" , what is it?
Resp: True

Req: And then "C/C=C(\Cl)C1=C(Cl)C(=O)[C@]23C[C@H]2C(C)(C)O[C@]3(O)C1=O" , what is it?
Resp: True

Req: And then CCN(CC)CC#CCOC(=O)C(O)(c1ccccc1)C1CCCCC1 (stereo not drawn) , what is it?
Resp: False

Req: And then "O=C1C[C@@H]2NCCCNCCCCN(CCCN1)C(=O)[C@@H]1c3cc2ccc3O[C@H]1c1ccc(O)cc1" , what is it?
Resp: True

Req: And then "C#CCO" , what is it?
Resp: False

###

- Test system: CCRIS mutagenicity, Ames/micronucleus/aberration tests
- PROTOCOL DETAILS: CCRIS mutagenicity studies
- ASSAY SETUP: Test System: AMES SALMONELLA TYPHIMURIUM; Strain/Indicator: TA98; Metabolic Activation: RAT, LIVER, S-9, AROCLOR 1254; Method: STANDARD PLATE
- Text: The CCRIS database contains chemical records with carcinogenicity, mutagenicity, tumor promotion, and tumor inhibition test results. It was developed by the National Cancer Institute (NCI). Data are derived from studies cited in primary journals, current awareness tools, NCI reports, and other sources. Test results have been reviewed by experts in carcinogenesis and mutagenesis. CCRIS provides historical information from the years 1985 - 2011. It is no longer updated. […]
Calls of active or inactive are those of the source. How the calls were made is not given here.
Entry note: the call must match one of active, inactive

Worked examples follow.
MOLECULE: O=C1c2ccccc2C(=O)c2ccccc21
CLASS NAME: inactive

MOLECULE: Oc1c(Cl)c(Cl)c(Cl)c(Cl)c1Cl
CLASS NAME: active

MOLECULE: CC12CCC(=O)NC1=CCC1C2CCC2(C)C(OC(=O)CCCc3ccc(N(CCCl)CCCl)cc3)CCC12 (stereo unspecified)
CLASS NAME: inactive

Req: Which outcome did this test record for the molecule "CC(C)(O)CCc1ccc(O)c2c(=O)c3c(O)c4c(cc3oc12)O[C@H]1OC=C[C@@]41O" ?
Resp: active

Req: And then O=CC(O)C(O)C(O)CO (stereo unspecified) , what is it?
Resp: inactive

Req: And then "Cc1cc(C)c(S(=O)(=O)O)cc1N=Nc1cc(S(=O)(=O)O)c2ccccc2c1O" , what is it?
Resp: inactive

###

- Test system: CCRIS mutagenicity, Ames/micronucleus/aberration tests
- PROTOCOL DETAILS: CCRIS mutagenicity studies
- ASSAY SETUP: Test System: AMES SALMONELLA TYPHIMURIUM; Strain/Indicator: TA100; Metabolic Activation: RAT, LIVER, S-9, AROCLOR 1254 (10%); Method: STANDARD PLATE
- Description: The CCRIS database contains chemical records with carcinogenicity, mutagenicity, tumor promotion, and tumor inhibition test results. It was developed by the National Cancer Institute (NCI). Data are derived from studies cited in primary journals, current awareness tools, NCI reports, and other sources. Test results have been reviewed by experts in carcinogenesis and mutagenesis. CCRIS provides historical information from the years 1985 - 2011. It is no longer updated. […]
Activity calls are given as the source filed them. How the calls were made is not given here.
Entry note: the call must match one of active, inactive

Worked examples follow.
MOLECULE: CCN(CC)c1ccc(C(=C2C=CC(=[N+](CC)CC)C=C2)c2ccc(N(CC)CC)cc2)cc1
CLASS NAME: inactive
//
MOLECULE: ClC/C=C\CCl
CLASS NAME: active
//
MOLECULE: CCCCC(CC)COC(=O)c1ccc(N(C)C)c([N+](=O)[O-])c1 (configuration not stated)
CLASS NAME: inactive
//
MOLECULE: Oc1ccccc1-c1ccccc1
CLASS NAME: inactive
//
MOLECULE: CCN(CC)c1ccc2c(-c3ccc(S(=O)(=O)O)cc3S(=O)(=O)[O-])c3ccc(=[N+](CC)CC)cc-3oc2c1
CLASS NAME: inactive
//
MOLECULE: C[CH2][Ge]([Cl])([CH2]C)[CH2]C
CLASS NAME: inactive

Req: Which outcome did this test record for the molecule "C[C@]12C=CC(=O)C=C1CC[C@@H]1[C@@H]2C(=O)C[C@@]2(C)[C@H]1CC[C@]2(O)C(=O)CO" ?
Resp: inactive
